Hey, just so you know, these numbers are from patent US20240189443A1.

Measured Increased relative affinity accompanies every entry in the list below.
Target system: PD-L1 (human PD-L1 protein of the ELISA of Example 16) (human, UniProt Q9NZQ7 19-238, limits assumed)
Sequence (Q9NZQ7 19-238 limits assumed): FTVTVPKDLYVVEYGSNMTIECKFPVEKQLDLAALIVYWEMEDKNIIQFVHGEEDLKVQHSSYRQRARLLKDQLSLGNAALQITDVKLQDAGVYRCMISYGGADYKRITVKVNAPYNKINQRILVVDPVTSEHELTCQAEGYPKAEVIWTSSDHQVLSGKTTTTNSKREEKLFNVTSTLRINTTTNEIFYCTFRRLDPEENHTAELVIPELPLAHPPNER
Run description: ELISA; affinity relative to original antibody h_Nb1 VHH (SEQ ID NO.21)

Binder	Increased relative affinity, relative
h_Nb1_G99W (VHH, also called 105) VHH: DVQLQESGGGLVQPGGSLRLSCAASGFTFSSYAMSWVRQAPGKGLEWVSDINSGGDNTDYADSVKGRFTISRDNAKNTLYLQMNSLKPEDTAVYYCARWPKLCFSSWGQGTQVTVSS	6.16
h_Nb1_C103W (VHH) VHH: DVQLQESGGGLVQPGGSLRLSCAASGFTFSSYAMSWVRQAPGKGLEWVSDINSGGDNTDYADSVKGRFTISRDNAKNTLYLQMNSLKPEDTAVYYCARGPKLWFSSWGQGTQVTVSS	3.83
h_Nb1_D62W (VHH, also called 98) VHH: DVQLQESGGGLVQPGGSLRLSCAASGFTFSSYAMSWVRQAPGKGLEWVSDINSGGDNTDYAWSVKGRFTISRDNAKNTLYLQMNSLKPEDTAVYYCARGPKLCFSSWGQGTQVTVSS	11.7
h_Nb1_G99Y (VHH, also called 106) VHH: DVQLQESGGGLVQPGGSLRLSCAASGFTFSSYAMSWVRQAPGKGLEWVSDINSGGDNTDYADSVKGRFTISRDNAKNTLYLQMNSLKPEDTAVYYCARYPKLCFSSWGQGTQVTVSS	7.02
h_Nb1_C103M (VHH) VHH: DVQLQESGGGLVQPGGSLRLSCAASGFTFSSYAMSWVRQAPGKGLEWVSDINSGGDNTDYADSVKGRFTISRDNAKNTLYLQMNSLKPEDTAVYYCARGPKLMFSSWGQGTQVTVSS	3.38
